Collected viability at 48 h, 9.36 ug/ml values appear next to each entry.
- protocolText: Cytotoxicity against human THP1 cells assessed as cell viability at 9.36 ug/ml after 48 hrs by MTT assay relative to control
- Type: cell-based
- assaySetup: THP-1 cells, read-out: Activity

// worked examples, viability at 48 h, 9.36 ug/ml included
Cc1cc(=O)oc2cc(OCc3cn([C@@H]4O[C@H](CO)[C@@H](O)[C@H]4O)nn3)ccc12
94%
Cc1cc(=O)oc2cc(-c3cn([C@@H]4O[C@H](CO)[C@@H](O)[C@H]4O)nn3)ccc12
90%

-- ask What does the data say about its viability at 48 h, 9.36 ug/ml? Entry: "[H]/N=C(/N)N[C@H]1[C@H](O)[C@@H](O)[C@H](O[C@@H]2O[C@@H](C)[C@](O)(C=O)[C@H]2O[C@@H]2O[C@@H](CO)[C@H](O)[C@@H](O)[C@@H]2NC)[C@@H](N/C(N)=N\[H])[C@@H]1O"
-- reply 86%

---

- Tested on: THP-1
- protocolText: Cytotoxicity against human THP1 cells assessed as growth inhibition after 24 to 48 hrs by MTT assay
- Assay type: cell-based
Collected IC50 values appear next to each entry.

// worked examples, IC50 included
O=c1ccc2ccc(OCc3cn([C@@H]4O[C@H](CO)[C@@H](O)[C@H]4O)nn3)cc2o1
> 400 µM
O=c1cc(-c2ccccc2)c2ccc(-c3cn([C@@H]4O[C@H](CO)[C@@H](O)[C@H]4O)nn3)cc2o1
> 355 µM

-- ask What does the data say about its IC50? Entry: "O=C(OC[C@H]1O[C@@H](n2cc(COc3ccc4c(-c5ccccc5)cc(=O)oc4c3)nn2)[C@H](OC(=O)c2ccccc2)[C@@H]1OC(=O)c1ccccc1)c1ccccc1"
-- reply > 196 µM

-- ask What does the data say about its IC50? Entry: "O=c1cc(-c2ccccc2)c2ccc(OCc3cn([C@@H]4O[C@H](CO)[C@@H](O)[C@H]4O)nn3)cc2o1"
-- reply > 332 µM

---

Collected selectivity ratio values appear next to each entry.
- protocolText: Selectivity index, ratio of IC50 for cytotoxicity against human THP1 cells to MIC for Mycobacterium tuberculosis H37Rv
- Assay type: toxicity, cell-based
- assaySetup: THP-1 cells, read-out: Selectivity Index
Keep the answer to the number alone.

// worked examples, selectivity ratio included
O=c1ccc2ccc(OCc3cn([C@@H]4O[C@H](CO)[C@@H](O)[C@H]4O)nn3)cc2o1
37.7
O=c1cc(-c2ccccc2)c2ccc(-c3cn([C@@H]4O[C@H](CO)[C@@H](O)[C@H]4O)nn3)cc2o1
25
NNC(=O)c1ccncc1 [ISONIAZID]
2740

Alright, here's another molecule for you.
-- ask What does the data say about its selectivity ratio? Entry: "O=C(OC[C@H]1O[C@@H](n2cc(COc3ccc4c(-c5ccccc5)cc(=O)oc4c3)nn2)[C@H](OC(=O)c2ccccc2)[C@@H]1OC(=O)c1ccccc1)c1ccccc1"
-- reply 37.6

---

Collected viability at 48 h, 9.36 ug/ml values appear next to each entry.
- protocolText: Cytotoxicity against human THP1 cells assessed as cell viability at 9.36 ug/ml after 48 hrs by MTT assay relative to control
- Assay type: cell-based
- assaySetup: THP-1 cells, read-out: Activity
Your answer is read as %, so omit the unit and give the number.

// worked examples, viability at 48 h, 9.36 ug/ml included
O=c1ccc2ccc(OCc3cn([C@@H]4O[C@H](CO)[C@@H](O)[C@H]4O)nn3)cc2o1
86
O=C(OC[C@H]1O[C@@H](n2cc(COc3ccc4c(-c5ccccc5)cc(=O)oc4c3)nn2)[C@H](OC(=O)c2ccccc2)[C@@H]1OC(=O)c1ccccc1)c1ccccc1
93
O=c1cc(-c2ccccc2)c2ccc(-c3cn([C@@H]4O[C@H](CO)[C@@H](O)[C@H]4O)nn3)cc2o1
94
O=c1cc(-c2ccccc2)c2ccc(OCc3cn([C@@H]4O[C@H](CO)[C@@H](O)[C@H]4O)nn3)cc2o1
93

Alright, here's another compound for you.
-- ask What does the data say about its viability at 48 h, 9.36 ug/ml? Entry: "NNC(=O)c1ccncc1"
-- reply 74

---

- System: THP-1
- protocolText: Cytotoxicity against human THP1 cells assessed as growth inhibition after 24 to 48 hrs by MTT assay
- Format: cell-based
quantityMeasured: IC50

// worked examples, IC50 included
NNC(=O)c1ccncc1
547 µM
Cc1cc(=O)oc2cc(-c3cn([C@@H]4O[C@H](CO)[C@@H](O)[C@H]4O)nn3)ccc12
> 417 µM
[H]/N=C(/N)N[C@H]1[C@H](O)[C@@H](O)[C@H](O[C@@H]2O[C@@H](C)[C@](O)(C=O)[C@H]2O[C@@H]2O[C@@H](CO)[C@H](O)[C@@H](O)[C@@H]2NC)[C@@H](N/C(N)=N\[H])[C@@H]1O
> 258 µM

Alright, here's another compound for you.
-- ask What does the data say about its IC50? Entry: "Cc1cc(=O)oc2cc(OCc3cn([C@@H]4O[C@H](CO)[C@@H](O)[C@H]4O)nn3)ccc12"
-- reply > 385 µM

---

Collected viability at 24 h, 150 ug/ml values appear next to each entry.
- protocolText: Cytotoxicity against human THP1 cells assessed as cell viability at 150 ug/ml after 24 hrs by MTT assay relative to control
- Format: cell-based
- assaySetup: THP-1 cells, read-out: Activity
Your answer is read as %, so omit the unit and give the number.

// worked examples, viability at 24 h, 150 ug/ml included
O=C(OC[C@H]1O[C@@H](n2cc(COc3ccc4c(-c5ccccc5)cc(=O)oc4c3)nn2)[C@H](OC(=O)c2ccccc2)[C@@H]1OC(=O)c1ccccc1)c1ccccc1
66
O=c1cc(-c2ccccc2)c2ccc(OCc3cn([C@@H]4O[C@H](CO)[C@@H](O)[C@H]4O)nn3)cc2o1
79
O=c1ccc2ccc(OCc3cn([C@@H]4O[C@H](CO)[C@@H](O)[C@H]4O)nn3)cc2o1
60
Cc1cc(=O)oc2cc(-c3cn([C@@H]4O[C@H](CO)[C@@H](O)[C@H]4O)nn3)ccc12
84

-- ask What does the data say about its viability at 24 h, 150 ug/ml? Entry: "O=c1cc(-c2ccccc2)c2ccc(-c3cn([C@@H]4O[C@H](CO)[C@@H](O)[C@H]4O)nn3)cc2o1"
-- reply 65

-- ask What does the data say about its viability at 24 h, 150 ug/ml? Entry: "Cc1cc(=O)oc2cc(OCc3cn([C@@H]4O[C@H](CO)[C@@H](O)[C@H]4O)nn3)ccc12"
-- reply 84

-- ask What does the data say about its viability at 24 h, 150 ug/ml? Entry: NNC(=O)c1ccncc1 [ISONIAZID]
-- reply 48

-- ask What does the data say about its viability at 24 h, 150 ug/ml? Entry: [H]/N=C(/N)N[C@H]1[C@H](O)[C@@H](O)[C@H](O[C@@H]2O[C@@H](C)[C@](O)(C=O)[C@H]2O[C@@H]2O[C@@H](CO)[C@H](O)[C@@H](O)[C@@H]2NC)[C@@H](N/C(N)=N\[H])[C@@H]1O [STREPTOMYCIN]
-- reply 75

---

- protocolText: Cytotoxicity against human THP1 cells assessed as cell viability at 37.48 ug/ml after 48 hrs by MTT assay relative to control
- Type: cell-based
- assaySetup: THP-1 cells, read-out: Activity
quantityMeasured: viability at 48 h, 37.48 ug/ml (%)
Your answer is read as %, so omit the unit and give the number.

// worked examples, viability at 48 h, 37.48 ug/ml included
O=c1ccc2ccc(OCc3cn([C@@H]4O[C@H](CO)[C@@H](O)[C@H]4O)nn3)cc2o1
63
O=c1cc(-c2ccccc2)c2ccc(OCc3cn([C@@H]4O[C@H](CO)[C@@H](O)[C@H]4O)nn3)cc2o1
78
Cc1cc(=O)oc2cc(-c3cn([C@@H]4O[C@H](CO)[C@@H](O)[C@H]4O)nn3)ccc12
77
Cc1cc(=O)oc2cc(OCc3cn([C@@H]4O[C@H](CO)[C@@H](O)[C@H]4O)nn3)ccc12
74
O=c1cc(-c2ccccc2)c2ccc(-c3cn([C@@H]4O[C@H](CO)[C@@H](O)[C@H]4O)nn3)cc2o1
70
[H]/N=C(/N)N[C@H]1[C@H](O)[C@@H](O)[C@H](O[C@@H]2O[C@@H](C)[C@](O)(C=O)[C@H]2O[C@@H]2O[C@@H](CO)[C@H](O)[C@@H](O)[C@@H]2NC)[C@@H](N/C(N)=N\[H])[C@@H]1O [STREPTOMYCIN]
77
O=C(OC[C@H]1O[C@@H](n2cc(COc3ccc4c(-c5ccccc5)cc(=O)oc4c3)nn2)[C@H](OC(=O)c2ccccc2)[C@@H]1OC(=O)c1ccccc1)c1ccccc1
74

Alright, here's another molecule for you.
-- ask What does the data say about its viability at 48 h, 37.48 ug/ml? Entry: NNC(=O)c1ccncc1 [ISONIAZID]
-- reply 57
